Sourced from paper PMC7321408

System: α-amylase enzyme
Assay: α-Amylase enzyme inhibitory assay
Type: biochemical
Settings: 200 µg/mL
Consider the following compounds and their measured % inhibition of α-amylase enzyme readings.
Remember to quote the unit after the number.

// known answers, use as guide
c1ccc2c(c1)CCCN2CN1CCOCC1    79.97%
c1ccc(N(CN2CCCc3ccccc32)c2ccccc2)cc1    88.67%
CC(=O)N(CN1CCCc2ccccc21)c1ccc(O)cc1    10.51%

Continue with the compound presented below.
*Q* Suppose we examine the compound `CN1CCN(CN2CCCc3ccccc32)CC1` ; what % inhibition of α-amylase enzyme value has been reported?
*A* 97.37%

----------
Test: MTT cytotoxicity against raw macrophages
Format: cell-based, albino rats
Conditions: albino, rat, peritoneal macrophages (raw macrophages); 100 µM, raw macrophages, 24 h, MTT; read-out: % Cell Viability
Consider the following compounds and their measured viability at 24 h, 100 µM readings.
Report only the number, with the unit % understood.

// known answers, use as guide
Clc1cccc(NCN2CCCc3ccccc32)c1 [SF8]    52
c1ccc2c(c1)CCCN2CN1CCOCC1 [SF2]    50
c1ccc2c(c1)CCCN2CN1CCCCC1 [SF1]    44.7
COc1ccc(NCN2CCCc3ccccc32)cc1 [SF12]    41
CC(=O)N(CN1CCCc2ccccc21)c1ccc(O)cc1 [SF13]    60
CN1CCN(CN2CCCc3ccccc32)CC1 [SF5]    60
CCN(CC)CN1CCCc2ccccc21 [SF11]    41
c1ccc(N(CN2CCCc3ccccc32)c2ccccc2)cc1 [SF7]    58
CC(=O)N(CN1CCCc2ccccc21)c1ccccc1 [SF10]    76
c1ccc2c(c1)CCCN2CN1CCNCC1 [SF6]    60

*Q* Suppose we examine the compound c1ccc2c(c1)CCCN2CN1CCCC1 [SF3] ; what viability at 24 h, 100 µM value has been reported?
*A* 41

*Q* Also check CCCN(CCC)CN1CCCc2ccccc21 [SF4]
*A* 39

*Q* Also check COc1cccc2c1C(=O)c1c(O)c3c(c(O)c1C2=O)C[C@@](O)(C(=O)CO)C[C@@H]3O[C@H]1C[C@H](N)[C@H](O)[C@H](C)O1 [Doxorubicin, reference compound]
*A* 17

*Q* Also check Brc1ccc(NCN2CCCc3ccccc32)cc1 [SF9]
*A* 82

----------
Consider the following compounds and their measured % DPPH Scavenging Activity readings.
Test: DPPH free radical scavenging assay
Conditions: 200 µg/mL; mean ± SEM, n = 3
Report only the number, with the unit % understood.

// known answers, use as guide
c1ccc2c(c1)CCCN2CN1CCOCC1 [SF2]    71.85
c1ccc(N(CN2CCCc3ccccc32)c2ccccc2)cc1 [SF7]    64.48
CCCN(CCC)CN1CCCc2ccccc21 [SF4]    58.58

Continue with the compound presented below.
*Q* Suppose we examine the compound CC(=O)N(CN1CCCc2ccccc21)c1ccccc1 [SF10] ; what % DPPH Scavenging Activity value has been reported?
*A* 49.73

----------
Experiment: MTT cytotoxicity against raw macrophages
Type: cell-based, albino rats
Settings: rat, primary peritoneal macrophages, mean ± SEM, n = 3
Test readout: IC50 at 24 h (µM)
Report only the number, with the unit µM understood.

*Q* Suppose we examine the molecule `c1ccc(N(CN2CCCc3ccccc32)c2ccccc2)cc1` ; what IC50 at 24 h value has been reported?
*A* 18.6
